Below, each entry is listed with its recorded pIC50.
target under test: T1, recombinant MCL1 (human, UniProt Q07820 1-350)
T1 chain: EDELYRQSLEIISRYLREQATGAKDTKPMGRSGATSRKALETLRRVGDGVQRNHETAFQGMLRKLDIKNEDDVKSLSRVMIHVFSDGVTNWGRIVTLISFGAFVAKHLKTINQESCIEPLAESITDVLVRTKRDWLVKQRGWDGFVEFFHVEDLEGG
method summary: FP
No end group written: not given here.
Just so you know, pIC50 here is -log10 of the concentration in molar units; reply with that number alone.

The examples below pair each entry with its known result.
1. RENFEILMKLKESLELMELVPQPLVDSYRQQQQLLQR [p73TD-derived peptide α1α2]
6.05
2. RENFEILMKLKESLELMELV [p73TD-derived peptide α1]
5.58

Now, please, on to the next binder.
QUERY: What value of measured pIC50 is listed for DEDTYYLQVRGRENFEILMKLKESLELMELV-NH2 [p73TD-derived peptide β1α1] ?
RESULT: 5.96
